Tested on: sodium channel
Assay: Inhibition of sodium channel (unknown origin) at 4 Hz at 10 uM by patch clamp assay relative to control
Format: toxicity
Conditions: human
measuredAttribute: inhibition at 10 µM

• CCOP(=O)(Cn1ccc(NC(=O)c2cc(Oc3cnc(C(=O)N4CCC4)cn3)cc(OC(C)C)c2)n1)OCC = 12%

----------
Test: Permeability of compound at pH >= 5.5 by PAMPA assay
Assay type: ADME
Conditions: read-out: permeability
measuredAttribute: Papp

* CCOP(=O)(Cn1ccc(NC(=O)c2cc(Oc3cnc(C(=O)N4CCC4)cn3)cc(OC(C)C)c2)n1)OCC | > 40 ×10⁻⁶ cm/s

----------
Assay: Cmax in cynomolgus monkey at 3 mg/kg, po measured upto 24 hrs
Type: ADME, organism-based, Macaca fascicularis
Design: route oral, dose 3 mg/kg, time <=24
Conditions: in vivo
measuredAttribute: Cmax

* CCOP(=O)(Cn1ccc(NC(=O)c2cc(Oc3cnc(C(=O)N4CCC4)cn3)cc(OC(C)C)c2)n1)OCC | 380 nM

----------
// remaining at 10 min, 0.5 µM lookup, one value per entry
Assay: Microsomal stability in human liver microsomes assessed as parent compound remaining at 0.5 uM measured after 10 mins in presence of NADPH
Type: ADME, Microsome
Details: read-out: Stability
measuredAttribute: remaining at 10 min, 0.5 µM (%)

- CCOP(=O)(Cn1ccc(NC(=O)c2cc(Oc3ccc(S(C)(=O)=O)cc3)cc(O[C@@H](CC)CO)c2)n1)OCC: 82
- CCOP(=O)(Cn1ccc(NC(=O)c2cc(Oc3ccc(S(C)(=O)=O)nn3)cc(OC(C)C)c2)n1)OCC: 100
- CCOP(=O)(Cn1ccc(NC(=O)c2cc(Oc3ccc(C(=O)N4CCC4)cn3)cc(OC(C)C)c2)n1)OCC: 99
- CCOP(=O)(Cn1ccc(NC(=O)c2cc(Oc3cnc(C(=O)N(C)C)cn3)cc(OC(C)C)c2)n1)OCC: 99
- CCOP(=O)(Cn1ccc(NC(=O)c2cc(Oc3cnc(S(C)(=O)=O)nc3)cc(OC(C)C)c2)n1)OCC: 100
- CCOP(=O)(Cn1ccc(NC(=O)c2cc(Oc3ccc(S(=O)(=O)C(C)C)cc3)cc(OC(C)C)c2)n1)OCC: 77

----------
Target: Cytochrome P450 2C8 (Homo sapiens, UniProt P10632)
Sequence (P10632 whole entry): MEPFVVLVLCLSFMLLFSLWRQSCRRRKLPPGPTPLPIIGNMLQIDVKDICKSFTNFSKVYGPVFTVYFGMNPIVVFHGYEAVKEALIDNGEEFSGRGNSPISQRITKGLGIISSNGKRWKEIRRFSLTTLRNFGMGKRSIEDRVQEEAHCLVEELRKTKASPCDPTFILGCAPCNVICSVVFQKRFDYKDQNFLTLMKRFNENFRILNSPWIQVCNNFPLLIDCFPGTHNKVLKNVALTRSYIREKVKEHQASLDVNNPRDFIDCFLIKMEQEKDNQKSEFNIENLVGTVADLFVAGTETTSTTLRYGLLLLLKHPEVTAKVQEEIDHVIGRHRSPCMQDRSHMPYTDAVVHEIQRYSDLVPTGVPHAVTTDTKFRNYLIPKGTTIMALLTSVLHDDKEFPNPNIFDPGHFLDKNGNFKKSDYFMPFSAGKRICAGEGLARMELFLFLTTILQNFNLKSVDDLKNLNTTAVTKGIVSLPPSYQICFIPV
measuredAttribute: IC50 (µM)

* CCOP(=O)(Cn1ccc(NC(=O)c2cc(Oc3cnc(C(=O)N4CCC4)cn3)cc(OC(C)C)c2)n1)OCC | 7.7

----------
Target: Hexokinase-4 (Homo sapiens)
Sequence (P35557 whole entry): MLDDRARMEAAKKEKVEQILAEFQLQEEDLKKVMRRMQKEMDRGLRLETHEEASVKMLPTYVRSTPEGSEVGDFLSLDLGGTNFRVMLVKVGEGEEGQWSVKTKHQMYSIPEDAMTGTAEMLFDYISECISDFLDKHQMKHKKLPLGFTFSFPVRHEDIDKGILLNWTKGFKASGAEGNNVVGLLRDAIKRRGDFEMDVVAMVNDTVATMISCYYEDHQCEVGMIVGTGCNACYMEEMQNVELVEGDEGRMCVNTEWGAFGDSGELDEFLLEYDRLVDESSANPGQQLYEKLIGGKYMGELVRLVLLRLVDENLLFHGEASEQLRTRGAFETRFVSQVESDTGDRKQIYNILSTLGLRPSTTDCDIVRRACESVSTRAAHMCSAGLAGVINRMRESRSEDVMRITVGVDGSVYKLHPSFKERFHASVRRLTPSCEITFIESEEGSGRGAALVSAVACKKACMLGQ
Test: Activation of recombinant full length human liver glucokinase expressed in Escherichia coli incubated for 10 mins by plate reader analysis
// EC50 lookup, one value per entry
measuredAttribute: EC50 (nM)

- CCOP(=O)(Cn1ccc(NC(=O)c2cc(Oc3ccc(C(=O)N4CCC4)nc3)cc(OC(C)C)c2)n1)OCC: 25
- CCOP(=O)(Cn1ccc(NC(=O)c2cc(Oc3ccc(C(=O)N4CCC4)nn3)cc(OC(C)C)c2)n1)OCC: 1240
- CCOP(=O)(Cn1ccc(NC(=O)c2cc(Oc3ccc(S(C)(=O)=O)cc3)cc(OC(C)C)c2)n1)OCC: 48
- CCOP(=O)(Cn1ccc(NC(=O)c2cc(Oc3cnc(C(N)=O)cn3)cc(OC(C)C)c2)n1)OCC: 656
- CCO[P@](C)(=O)Cn1ccc(NC(=O)c2cc(Oc3ccc(S(C)(=O)=O)cc3)cc(O[C@@H](C)COC)c2)n1: 169
